Target: Human BCL-XL protein (N-terminal HiBiT tagged BCL-XL in HT1080 cells) (Homo sapiens, UniProt Q07817)
Construct: expressed in transfected cells; host or cells: HT-1080 (ATCC CCL-121), stably transduced with lentivirus pLV-UBC-N-HiBiT-BCL-XL-PGK-puro and selected with puromycin
Sequence (Q07817 whole entry): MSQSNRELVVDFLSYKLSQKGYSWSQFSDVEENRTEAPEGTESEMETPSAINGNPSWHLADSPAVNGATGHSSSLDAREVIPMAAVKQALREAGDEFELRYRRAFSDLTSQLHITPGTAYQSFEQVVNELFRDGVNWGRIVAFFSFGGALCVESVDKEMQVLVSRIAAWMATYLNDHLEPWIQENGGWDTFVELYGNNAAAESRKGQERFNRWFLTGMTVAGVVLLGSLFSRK
Assay: HiBiT based degradation assay
Assay type: cell-based
Conditions: BCL-XL degradation; HT1080 cells expressing HiBiT-BCL-XL; 6 h; read-out: EC50 (6 h)
We begin with a simple list: items and their reported DC50.
Measured parameter: DC50

# Compound, Measured parameter, Recorded value
data = [
    ("Cc1c(Oc2ccc(CCCNc3ccc4c(C5CCC(=O)NC5=O)nn(C)c4c3)cc2)cccc1-c1ccc(N2CCc3cccc(C(=O)Nc4nc5ccccc5s4)c3C2)nc1C(=O)O (centres unmarked) [Compound 123]", "DC50", "100 to 1000 nM"),
    ("Cc1c(OCCOC2CCN(CC(=O)Nc3cccc4c(C5CCC(=O)NC5=O)nn(C)c34)CC2)cccc1-c1ccc(N2CCc3cccc(C(=O)Nc4nc5ccccc5s4)c3C2)nc1C(=O)O (centres unmarked) [Compound 194]", "DC50", "100 to 1000 nM"),
    ("Cc1c(O[C@H](C)CCC2CCN(CC(=O)Nc3cccc4c(C5CCC(=O)NC5=O)nn(C)c34)CC2)cccc1-c1ccc(N2CCc3cccc(C(=O)Nc4nc5ccccc5s4)c3C2)nc1C(=O)O (some centres unmarked) [Compound 169b]", "DC50", "< 100 nM"),
    ("Cc1c(-c2ccc(N3CCc4cccc(C(=O)Nc5nc6ccccc6s5)c4C3)nc2C(=O)NCCCCCCCCCCCC(=O)Nc2cccc3c(C4CCC(=O)NC4=O)nn(C)c23)cnn1CC12CC3CC(CC(C3)C1)C2 (centres unmarked) [Compound 110]", "DC50", "< 100 nM"),
    ("Cc1c(OCCCN2CCN(CC(=O)Nc3cccc4c(C5CCC(=O)NC5=O)nn(C)c34)[C@@H](C(F)(F)F)C2)cccc1-c1ccc(N2CCc3cccc(C(=O)Nc4nc5ccccc5s4)c3C2)nc1C(=O)O (some centres unmarked) [Compound 218a]", "DC50", "1000 to 10000 nM"),
]
